Reported pIC50 values, Acetylcholinesterase (Homo sapiens).
Value format note: pIC50 is -log10 of concentration (mol/L); just state the number.

[ask] Bench note: what pIC50 did COc1cc2c(cc1OC)CC(CC1CCN(CCCNc3c4c(nc5cc(Cl)ccc35)CCCC4)CC1)C2 show?
[reply] 8.97

[ask] Bench note: what pIC50 did COc1cc2c(cc1OC)CC(CC1CCN(CCNc3c4c(nc5cc(Cl)ccc35)CCCC4)CC1)C2 show?
[reply] 8.59

[ask] Bench note: what pIC50 did COc1cc2c(cc1OC)CC(CC1CCN(CCNc3c4c(nc5ccccc35)CCCC4)CC1)C2 show?
[reply] 8.29

[ask] Bench note: what pIC50 did COc1cc2c(cc1OC)CC(CC1CCN(CCCNc3c4c(nc5ccccc35)CCCC4)CC1)C2 show?
[reply] 8.67

[ask] Bench note: what pIC50 did COc1cc2c(cc1OC)C(=O)C(CC1CCN(CCNc3c4c(nc5cc(Cl)ccc35)CCCC4)CC1)C2 (stereo unspecified) show?
[reply] 9.17

[ask] Bench note: what pIC50 did COc1cc2c(cc1OC)C(=O)C(CC1CCN(CCCNc3c4c(nc5ccccc35)CCCC4)CC1)C2 (stereo unspecified) show?
[reply] 9.06

---

Hi there, I'd appreciate the recorded IC50 for every entry that follows.
Molecular target: Acetylcholinesterase (Bos taurus)
Sequence (P23795 whole entry): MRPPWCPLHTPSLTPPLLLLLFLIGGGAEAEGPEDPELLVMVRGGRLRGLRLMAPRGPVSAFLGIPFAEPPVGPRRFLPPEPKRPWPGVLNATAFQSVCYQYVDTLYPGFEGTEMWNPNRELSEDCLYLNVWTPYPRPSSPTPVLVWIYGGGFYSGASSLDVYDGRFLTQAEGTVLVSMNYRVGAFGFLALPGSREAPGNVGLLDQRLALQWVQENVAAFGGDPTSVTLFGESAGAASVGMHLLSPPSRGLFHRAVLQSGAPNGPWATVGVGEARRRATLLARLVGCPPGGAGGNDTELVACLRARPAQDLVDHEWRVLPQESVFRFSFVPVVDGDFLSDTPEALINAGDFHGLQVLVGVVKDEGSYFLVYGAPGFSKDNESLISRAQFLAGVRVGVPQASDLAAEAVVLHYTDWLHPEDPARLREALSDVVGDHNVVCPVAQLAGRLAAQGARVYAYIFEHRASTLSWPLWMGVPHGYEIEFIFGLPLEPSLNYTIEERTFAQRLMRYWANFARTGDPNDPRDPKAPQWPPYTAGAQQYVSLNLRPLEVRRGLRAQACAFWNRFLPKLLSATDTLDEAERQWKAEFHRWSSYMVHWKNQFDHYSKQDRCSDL

[ask] I'm curious: which IC50 was measured for COc1cc2c(cc1OC)C(=O)C(CC1CCN(CCNc3c4c(nc5cc(Cl)ccc35)CCCC4)CC1)C2 (stereo not drawn) tested on Acetylcholinesterase (Bos taurus)?
[reply] 0.57 nM

[ask] I'm curious: which IC50 was measured for COc1cc2c(cc1OC)CC(CC1CCN(CCCNc3c4c(nc5cc(Cl)ccc35)CCCC4)CC1)C2 tested on Acetylcholinesterase (Bos taurus)?
[reply] 0.82 nM

[ask] I'm curious: which IC50 was measured for COc1cc2c(cc1OC)CC(CC1CCN(CCNc3c4c(nc5cc(Cl)ccc35)CCCC4)CC1)C2 tested on Acetylcholinesterase (Bos taurus)?
[reply] 1.86 nM

[ask] I'm curious: which IC50 was measured for Nc1c2c(nc3cc(Cl)ccc13)CCCC2 tested on Acetylcholinesterase (Bos taurus)?
[reply] 5.73 nM

[ask] I'm curious: which IC50 was measured for COc1cc2c(cc1OC)CC(CC1CCN(Cc3ccccc3)CC1)C2 tested on Acetylcholinesterase (Bos taurus)?
[reply] 1450 nM

[ask] I'm curious: which IC50 was measured for COc1cc2c(cc1OC)CC(CC1CCN(CCCNc3c4c(nc5ccccc35)CCCC4)CC1)C2 tested on Acetylcholinesterase (Bos taurus)?
[reply] 0.82 nM

[ask] I'm curious: which IC50 was measured for COc1cc2c(cc1OC)C(=O)C(CC1CCN(CCCNc3c4c(nc5ccccc35)CCCC4)CC1)C2 (stereo not drawn) tested on Acetylcholinesterase (Bos taurus)?
[reply] 0.29 nM

[ask] I'm curious: which IC50 was measured for COc1cc2c(cc1OC)CC(CC1CCN(CCNc3c4c(nc5ccccc35)CCCC4)CC1)C2 tested on Acetylcholinesterase (Bos taurus)?
[reply] 2.28 nM
